Attribution: patent US20220363662A1

- target.under.test: LXR beta (Homo sapiens)
- Construct: 5 μL of 4×LXR beta-LBD was added to each well (final concentration 5 nM)
- assay.notes: LXR beta agonist assay (Lanthascreen TR-FRET)
- conditions: LXR beta-LBD 5 nM, read-out: LXR-β EC50
EC50 under 3 µM gets y, anything at or over 3 µM gets n.

In [3]: df
Out[3]:
                                   compound  group
0  CN(C)C(=O)c1ccc(O[C@@H]2CCN(C3CCN(C(=O)[C@](O)(c4ccccc4)C(F)(F)F)CC3)C2)cc1Cl      n
1  COCCCN(C)C(=O)c1ccc(N2CCN(C3CC4(C3)CN(C(=O)C(O)(c3ccccc3)C(F)(F)F)C4)CC2)cc1Cl (stereo not drawn)      y
2  O=C(c1ccc(NC2CN(C3CCN(C(=O)C(O)(c4ccccc4)C(F)(F)F)CC3)C2)cc1Cl)N1CCN(C(=O)C2CCC2)CC1 (stereo not drawn)      n
3  CN(C)C(=O)c1ccc(NC2CN(C3CCN(C(=O)C(O)(c4ccccc4)C(F)(F)F)CC3)C2)cc1F (stereo not drawn)      n
4  CN(C)C(=O)c1cc([N+](=O)[O-])c(NC2CN(C3CCN(C(=O)[C@](O)(c4ccccc4)C(F)(F)F)CC3)C2)cc1Cl      n
5  CN(C)C(=O)c1ccc(NC2CN(C3CCN(S(=O)(=O)c4ccccc4C#N)CC3)C2)cc1Cl      n

* * *

- target.under.test: LXR alpha (Homo sapiens)
- Construct: 5 μL of 4×LXR alpha-LBD was added to each well (final concentration 2.5 nM)
- Sequence (Q13133 209-447 limits assumed): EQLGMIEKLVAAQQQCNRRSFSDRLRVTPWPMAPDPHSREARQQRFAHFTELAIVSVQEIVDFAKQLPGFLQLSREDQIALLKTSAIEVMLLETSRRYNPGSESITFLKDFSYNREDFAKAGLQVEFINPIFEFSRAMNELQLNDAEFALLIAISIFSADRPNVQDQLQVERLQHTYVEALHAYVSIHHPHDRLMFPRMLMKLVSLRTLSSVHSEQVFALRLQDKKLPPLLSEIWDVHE
- assay.notes: LXR alpha agonist assay (Lanthascreen TR-FRET)
- conditions: LXR alpha-LBD 2.5 nM, read-out: LXR-α EC50
pEC50: −log10 of the molar value.
// label = Satisfied if pEC50 is not less than 5, otherwise Not satisfied

>>> print(df.to_string())
                                   compound          group
0  CN(C)C(=O)c1ccc(-c2nnc(C3=CCN(S(=O)(=O)c4ccccc4Cl)CC3)s2)cc1Cl      Satisfied
1  CC(C)[C@@](O)(C(=O)N1CCC(N2CC(Nc3ccc(C(=O)N(C)C)c(Cl)c3)C2)CC1)C(F)(F)F (single isomer, unassigned)  Not satisfied
2  CN(C)C(=O)c1ccc(NC2CN(C3CCN(C(=O)[C@@](O)(c4ccccc4)C(F)(F)F)CC3)C2)cc1Cl (single isomer, unassigned)  Not satisfied
3  O=C(N1CCC(C2CCN(c3cc(Cl)c4c(=O)[nH]ccc4c3)CC2)CC1)[C@](O)(c1ccccc1)C(F)(F)F      Satisfied
4  CN(C)C(=O)c1ccc(N2CCN(C3CC4(C3)CN(S(=O)(=O)c3ccccc3C(F)(F)F)C4)CC2)cc1Cl  Not satisfied
5  CC(C)[C@](O)(C(=O)N1CCC2(CC1)CN(C1CCN(c3ccc(C(=O)N(C)C)c(Cl)c3)CC1)C2)C(F)(F)F (single isomer, unassigned)      Satisfied
6  CN(C)C(=O)c1ccc(N2CCN(C3CC4(C3)CN(C(=O)[C@@](O)(c3ccccc3)C(F)(F)F)C4)CC2)cc1Cl (single isomer, unassigned)      Satisfied
7  CN(C)C(=O)c1ccc(OC2CN(C3CCN(C(=O)[C@](O)(c4ccccc4)C(F)(F)F)CC3)C2)cc1Cl  Not satisfied
8  CC1CC(N2CC(Nc3ccc(C(=O)N(C)C)c(Cl)c3)C2)CCN1S(=O)(=O)c1ccccc1Cl (stereo not drawn)  Not satisfied
9  CC(C)[C@](O)(C(=O)N1CCC(N2CC(Nc3ccc(C(=O)N(C)C)c(Cl)c3)C2)CC1)C(F)(F)F (single isomer, unassigned)  Not satisfied

* * *

- target.under.test: LXR beta (Homo sapiens)
- Construct: 5 μL of 4×LXR beta-LBD was added to each well (final concentration 5 nM)
- Sequence (P55055 222-460 limits assumed): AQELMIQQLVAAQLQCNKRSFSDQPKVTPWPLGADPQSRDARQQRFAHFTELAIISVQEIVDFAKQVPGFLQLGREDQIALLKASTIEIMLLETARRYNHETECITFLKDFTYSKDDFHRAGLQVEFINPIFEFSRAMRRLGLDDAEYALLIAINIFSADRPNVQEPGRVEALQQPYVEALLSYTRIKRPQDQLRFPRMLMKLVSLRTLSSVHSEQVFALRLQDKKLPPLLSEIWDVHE
- assay.notes: LXR beta agonist assay (Lanthascreen TR-FRET)
- conditions: LXR beta-LBD 5 nM, read-out: LXR-β EC50
# strict inequality: EC50 < 3000 nM yields true (1), everything else yields false (0)

>>> print(df.to_string())
                                    molecule      group
 0  CN(C)C(=O)c1ccc(OC2CN(C3CCN(C(=O)[C@](O)(c4ccccc4)C(F)(F)F)CC3)C2)cc1Cl   true (1)
 1  CN(C)C(=O)c1ccc(N[C@H]2CCN(C3CCN(C(=O)[C@](O)(c4ccccc4)C(F)(F)F)CC3)C2)cc1Cl  false (0)
 2  CN(C)C(=O)c1ccc(N2CCN(C3CC4(C3)CN(C(=O)C(O)(c3ccccc3)C(F)(F)F)C4)CC2)cc1Cl (stereo not drawn)   true (1)
 3  CCN(CC)C(=O)c1ccc(NC2CN(C3CCN(C(=O)[C@](O)(c4ccccc4)C(F)(F)F)CC3)C2)cc1Cl (single isomer, unassigned)   true (1)
 4  Cc1cccc([C@](O)(C(=O)N2CCC(N3CC(Nc4ccc(C(=O)N(C)C)c(Cl)c4)C3)CC2)C(F)(F)F)c1 (single isomer, unassigned)   true (1)
 5  COc1cccc(C2(C(=O)N3CCC(N4CC(Nc5ccc(C(=O)N(C)C)c(Cl)c5)C4)CC3)CCCC2)c1   true (1)
 6  CN(C)C(=O)c1ccc(N[C@@H]2CCN(C3CCN(C(=O)[C@](O)(c4ccccc4)C(F)(F)F)CC3)C2)cc1Cl   true (1)
 7  O=C(c1ccc(NC2CN(C3CCN(C(=O)C(O)(c4ccccc4)C(F)(F)F)CC3)C2)cc1Cl)N1CCCCC1 (stereo not drawn)  false (0)
 8  CN(C)C(=O)c1ccc(C2=CCN(C3CC4(C3)CN(C(=O)C(O)(c3ccccc3)C(F)(F)F)C4)CC2)cc1Cl (stereo not drawn)  false (0)
 9  CN(C)C(=O)c1ccc(-c2nnc(C3=CCN(C(=O)C45CC6CC(CC(C6)C4)C5)CC3)s2)cc1Cl  false (0)
10  CC(C)[C@](O)(C(=O)N1CCC2(CC1)CN(C1CCN(c3ccc(C(=O)N(C)C)c(Cl)c3)CC1)C2)C(F)(F)F (single isomer, unassigned)   true (1)

* * *

- target.under.test: LXR beta (Homo sapiens)
- Construct: 5 μL of 4×LXR beta-LBD was added to each well (final concentration 5 nM)
- assay.notes: LXR beta agonist assay (Lanthascreen TR-FRET)
- conditions: LXR beta-LBD 5 nM, read-out: LXR-β EC50
Below is a list of entries, each paired with its recorded EC50 value.
readout.kind: EC50

                                    compound        target_under_test  readout_kind    result
 0  CC(C)[C@](O)(C(=O)N1CCC(N2CC(Nc3ccc(C(=O)N(C)C)c(Cl)c3)C2)CC1)C(F)(F)F (single isomer, unassigned)  LXR beta (Homo sapiens)          EC50   1.21 µM
 1  O=c1[nH]ccc2cc(N3CCC(C4CCN(S(=O)(=O)c5ccccc5C(F)(F)F)CC4)CC3)cc(Cl)c12  LXR beta (Homo sapiens)          EC50   2.51 µM
 2  CN(C)C(=O)c1ccc(-c2nnc(N3CCN(S(=O)(=O)c4ccccc4Cl)CC3)s2)cc1F  LXR beta (Homo sapiens)          EC50   9.77 µM
 3  CC(=O)N1CCN(C(=O)c2ccc(NC3CN(C4CCN(C(=O)C(O)(c5cccc(Cl)c5)C(F)(F)F)CC4)C3)cc2Cl)CC1 (stereo not shown)  LXR beta (Homo sapiens)          EC50   0.86 µM
 4  O=C(c1ccc(NC2CN(C3CCN(C(=O)[C@](O)(c4ccccc4)C(F)(F)F)CC3)C2)cc1Cl)N1CCCCC1 (single isomer, unassigned) [Compound 1.108]  LXR beta (Homo sapiens)          EC50   1.57 µM
 5  O=C(c1ccc(NC2CN(C3CCN(C(=O)C(O)(c4ccccc4)C(F)(F)F)CC3)C2)cc1Cl)N1CCCC1 (stereo not shown)  LXR beta (Homo sapiens)          EC50   > 30 µM
 6  CN(C)C(=O)c1ccc(-c2nnc(C3=CCN(C(=O)C(C)(C)C)CC3)s2)cc1Cl  LXR beta (Homo sapiens)          EC50   5.45 µM
 7  O=C(c1ccc(NC2CN(C3CCN(C(=O)C(O)(c4cccc(Cl)c4)C(F)(F)F)CC3)C2)cc1Cl)N1CCC(F)(F)CC1 (stereo not shown)  LXR beta (Homo sapiens)          EC50  0.995 µM
 8  CN(C)C(=O)c1ccc(NC2CN(C3CCN(C(=O)[C@@](O)(c4ccc(F)cc4)C(F)(F)F)CC3)C2)cc1Cl (single isomer, unassigned)  LXR beta (Homo sapiens)          EC50   9.85 µM
 9  CN(C)C(=O)c1ccc(NC2CN(C3CCN(C(=O)C45CC(C4)C5)CC3)C2)cc1Cl  LXR beta (Homo sapiens)          EC50   3.79 µM
10  O=C(N1CCC(C2CCN(c3cc(Cl)c4c(=O)[nH]ccc4c3)CC2)CC1)C1(c2ccccc2)CCC1  LXR beta (Homo sapiens)          EC50    2.4 µM
11  CN(C)C(=O)c1ccc(NC2CN(C3CCN(C(=O)C4(c5ccc(F)cc5)CCCC4)CC3)C2)cc1Cl  LXR beta (Homo sapiens)          EC50   3.41 µM
12  CN(C)C(=O)c1ccc(NC2CN(C3CCN(C(=O)C4(c5ccc(F)cc5)CCC4)CC3)C2)cc1Cl  LXR beta (Homo sapiens)          EC50   15.9 µM
